Origin of the recorded values: patent US20240270821A1

target: hGIPR (Homo sapiens); test: Functional cAMP activity in the presence of 1% HSA; format: cell-based; conditions: read-out: cAMP Rel EC50, hGIPR
Sequence (P48546 22-466): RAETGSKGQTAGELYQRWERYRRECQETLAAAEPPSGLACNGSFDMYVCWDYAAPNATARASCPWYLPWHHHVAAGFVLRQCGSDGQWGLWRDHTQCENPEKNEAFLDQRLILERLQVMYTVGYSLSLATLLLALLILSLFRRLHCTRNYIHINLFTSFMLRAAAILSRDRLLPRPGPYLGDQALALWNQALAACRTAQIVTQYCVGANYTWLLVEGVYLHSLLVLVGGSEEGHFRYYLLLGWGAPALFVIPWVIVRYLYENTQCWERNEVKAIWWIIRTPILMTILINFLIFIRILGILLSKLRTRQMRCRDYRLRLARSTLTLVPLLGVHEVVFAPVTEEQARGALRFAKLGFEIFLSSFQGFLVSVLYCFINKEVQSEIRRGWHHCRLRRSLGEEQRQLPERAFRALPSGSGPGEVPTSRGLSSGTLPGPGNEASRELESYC
pEC50: −log10 of the molar value. Starred links: 1 amine or outer side, 2 acyl side, 3 side chain; linkers in the order of their positions; H or OH if unused. Non-standard residues stand in square brackets, D forms with d. Groups on a side chain read outwards from the residue. No end group written: not given here. *: point of attachment. C20 diacid = O=C(O)CCCCCCCCCCCCCCCCCCC(=O)*; C18 diacid = O=C(O)CCCCCCCCCCCCCCCCC(=O)*; Phe(4-CN) = N#Cc1ccc(C[C@H](N)C(=O)O)cc1; αMePhe(2-F) = C[C@](N)(Cc1ccccc1F)C(=O)O; γGlu = O=C(O)[C@H](CCC(=O)[*:2])N[*:1]; αMe4Pal = C[C@](N)(Cc1ccncc1)C(=O)O; αMeY = C[C@](N)(Cc1ccc(O)cc1)C(=O)O; αMeF = C[C@](N)(Cc1ccccc1)C(=O)O; 4Pal = N[C@@H](Cc1ccncc1)C(=O)O; αMeL = CC(C)C[C@](C)(N)C(=O)O; αMeS = C[C@](N)(CO)C(=O)O; Orn = NCCC[C@H](N)C(=O)O; AEEA = NCCOCCOCC(=O)O; Aib = CC(C)(N)C(=O)O
Label false if pEC50 falls below 8; label true in every other case.

Substance	Classification
H-Y[Aib]QGTFTSD[4Pal]S[Orn][αMeL]LDKK([Glu-γGlu-C18 diacid])AQ[αMe4Pal]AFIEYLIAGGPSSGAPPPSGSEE-NH2 [Example 1060]	false
Y[Aib]QGT[αMePhe(2-F)]TSD[4Pal][αMeS]I[αMeL]LD[Orn]K([AEEA-γGlu-C18 diacid])AQ[αMe4Pal]EFI[dE][αMeY]LIEGGPPS[Aib][Orn]PPPSGSE-NH2 [Example 1198]	true
H-Y[Aib]QGT[αMePhe(2-F)]TSD[4Pal][αMeS]I[αMeL]LD[Orn]K([AEEA-γGlu-C18 diacid])AQ[αMe4Pal]EFI[dE][αMeY]LIEGGPPS[Aib][Orn]PPPSGGGE-NH2 [Example 1199]	true
H-Y[Aib]QGT[αMePhe(2-F)]TSD[4Pal]SI[αMeL]LD[Orn]K([AEEA-γGlu-C18 diacid])AQ[αMe4Pal][Orn]FI[dE][αMeY]LIEGGPSSGEPPPEEG-NH2 [Example 475]	true
H-Y[Aib]Q[dA]T[αMePhe(2-F)]TSD[4Pal][αMeS]I[αMeL]LD[Orn]K([γGlu-γGlu-C18 diacid])AQ[Aib]EFI[dE][αMeY]LIEGGPSSGAPPPSGGGE-NH2 [Example 1225]	true
H-Y[Aib]QGT[αMePhe(2-F)]TSD[Phe(4-CN)]SILLDKQAQK([AEEA-γGlu-C20 diacid])AFIQYLLEGGPSSGEPPPSEG-NH2 [Example 341]	false
H-Y[Aib]QGTFTSD[4Pal]SR[αMeL]LDKK([AEEA-γGlu-C18 diacid])AQ[αMe4Pal]AFIEYLIE[Aib]GESSGAPPPSGS-NH2 [Example 224]	false
H-Y[Aib]QGTFTSDFS[Orn][αMeL]LDKK([γGlu-γGlu-C18 diacid])AQ[Aib]AFIEYLLEGGPSS[Aib]APPPGGS-NH2 [Example 770]	false
H-Y[Aib]QGTFTSDYSI[αMeL]LDKQAAK([AEEA-AEEA-γGlu-C20 diacid])AFVEWLLA[Aib]GPSSGEPPPSEG-NH2 [Example 317]	false
Y[Aib]QGT[αMeF]TSD[4Pal][αMeS]I[αMeL]LD[Orn]K([AEEA-γGlu-C18 diacid])AQ[αMe4Pal]EFI[dE][αMeY]LIEGGPSSGAPPPSGGGE-NH2 [Example 1168]	true
H-Y[Aib]QGT[αMePhe(2-F)]TSD[4Pal]SI[αMeL]LD[Orn]K([AEEA-γGlu-C18 diacid])AQ[αMe4Pal]EFI[dE][αMeY]LLEGGPSSGEPPPSGS-NH2 [Example 645]	true
H-Y[Aib]QGT[αMePhe(2-F)]TSD[4Pal][αMeS]I[αMeL]LD[Orn]K([γGlu-γGlu-C18 diacid])AA[Aib]EFI[dE][αMeY]LVEGGPSSGEPPPSGS-NH2 [Example 695]	true
H-Y[Aib]QGTFTSD[4Pal]SQ[αMeL]LDKK([Glu-γGlu-C18 diacid])AQ[αMe4Pal]AFIEYLIE[Aib]GPSSGAPPPSGS-NH2 [Example 894]	false
H-Y[Aib]QGTFTSD[4Pal]SR[αMeL]LDKK([AEEA-γGlu-C18 diacid])AQ[Aib]AFIE[αMeY]LIEGGPSSGAPPPSGS-NH2 [Example 837]	false
Y[Aib]QGT[αMePhe(2-F)]TSD[4Pal][αMeS]I[αMeL]LD[Orn]K([AEEA-γGlu-C18 diacid])AQ[αMe4Pal]EFI[dQ][αMeY]LIEGGPSSGAPPPSGS-NH2 [Example 1202]	true
H-Y[Aib]QGTFTSDFS[Orn][αMeL]LDKK([AEEA-AEEA-γGlu-C18 diacid])AQ[Aib]AFIEYLLE[dA]GPSSGHPPPSG[4Pal]-NH2 [Example 256]	false
H-Y[Aib]QGT[αMePhe(2-F)]TSD[4Pal]SILLDKK([γGlu-γGlu-C18 diacid])AQ[Aib]AFIE[αMeY]LEEGGPSSGAPPPSGGGE-NH2 [Example 668]	true
Y[Aib]QGT[αMePhe(2-F)]TSD[4Pal]SI[αMeL]LD[Orn]K([AEEA-γGlu-C18 diacid])AQ[αMe4Pal][Orn]FI[dE][αMeY]LIEGGPSSGDPPPESE-NH2 [Example 729]	true
H-Y[Aib]QGTFTSDFS[Orn][αMeL]LDKK([AEEA-γGlu-C18 diacid])AQ[Aib]AFIE[4Pal]LLEGGPSSGAPPPGGS-NH2 [Example 496]	false
H-Y[Aib]QGTFTSDFS[Orn][αMeL]LDKK([AEEA-γGlu-C18 diacid])AQ[Aib]AFIEWLLEGGSSSGAPPPSGT-NH2 [Example 174]	false

###

biological target: hGLP-1R (Homo sapiens, UniProt P43220); assay: Functional cAMP activity in the presence of 1% HSA; assay type: cell-based; details: read-out: cAMP Rel EC50, hGLP-1R
Sequence (P43220 24-463): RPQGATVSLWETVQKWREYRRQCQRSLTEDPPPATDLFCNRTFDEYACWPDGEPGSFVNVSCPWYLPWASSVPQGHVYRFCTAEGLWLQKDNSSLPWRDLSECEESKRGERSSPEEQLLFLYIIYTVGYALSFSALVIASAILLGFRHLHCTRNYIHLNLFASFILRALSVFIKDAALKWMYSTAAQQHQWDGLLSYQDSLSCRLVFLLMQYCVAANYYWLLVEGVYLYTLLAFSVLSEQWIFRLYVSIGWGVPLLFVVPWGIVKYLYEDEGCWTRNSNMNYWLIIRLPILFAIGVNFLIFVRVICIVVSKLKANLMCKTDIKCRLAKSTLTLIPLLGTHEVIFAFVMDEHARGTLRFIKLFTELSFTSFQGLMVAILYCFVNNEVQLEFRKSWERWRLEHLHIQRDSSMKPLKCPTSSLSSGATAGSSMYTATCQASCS
pEC50: −log10 of the molar value. Starred links: 1 amine or outer side, 2 acyl side, 3 side chain; linkers in the order of their positions; H or OH if unused. Non-standard residues stand in square brackets, D forms with d. Groups on a side chain read outwards from the residue. No end group written: not given here. *: point of attachment. C20 diacid = O=C(O)CCCCCCCCCCCCCCCCCCC(=O)*; C18 diacid = O=C(O)CCCCCCCCCCCCCCCCC(=O)*; αMePhe(2-F) = C[C@](N)(Cc1ccccc1F)C(=O)O; γGlu = O=C(O)[C@H](CCC(=O)[*:2])N[*:1]; αMe4Pal = C[C@](N)(Cc1ccncc1)C(=O)O; αMeY = C[C@](N)(Cc1ccc(O)cc1)C(=O)O; αMeF = C[C@](N)(Cc1ccccc1)C(=O)O; 4Pal = N[C@@H](Cc1ccncc1)C(=O)O; αMeL = CC(C)C[C@](C)(N)C(=O)O; αMeS = C[C@](N)(CO)C(=O)O; Orn = NCCC[C@H](N)C(=O)O; AEEA = NCCOCCOCC(=O)O; Aib = CC(C)(N)C(=O)O
pEC50: recorded values

Substance	pEC50
Y[Aib]QGTFTSD[4Pal]SK[αMeL]LDKK([AEEA-γGlu-C20 diacid])AQ[Aib]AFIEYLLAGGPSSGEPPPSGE-NH2 [Example 28]	6.16
H-Y[Aib]QGTFTSDFS[Orn][αMeL]LDKK([AEEA-γGlu-C18 diacid])AQ[Aib]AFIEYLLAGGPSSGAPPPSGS-NH2 [Example 95]	6.42
H-Y[Aib]QGT[αMePhe(2-F)]TSD[4Pal]SILLDKK([γGlu-γGlu-C18 diacid])AQ[Aib]AFIEYLEEGGPSSGAPPPSGSGE-NH2 [Example 618]	7.05
Y[Aib]QGT[αMePhe(2-F)]TSDYSKLLDKIAQK([AEEA-γGlu-C20 diacid])AFIQYLIEGGPSSGEPPPSEG-NH2 [Example 338]	6.76
H-Y[Aib]QGT[αMeF]TSD[4Pal][αMeS]I[αMeL]LD[Orn]K([γGlu-γGlu-C18 diacid])AQ[αMe4Pal]EFI[dE][αMeY]LIEGGPSSGAPPPSGE-NH2 [Example 1170]	7.30
H-Y[Aib]QGTFTSD[4Pal]S[Orn][αMeL]LD[Orn]K([γGlu-γGlu-C18 diacid])AQ[αMe4Pal][Orn]FIEYLLAGGPSSGAPPPSGSEE-NH2 [Example 1004]	6.01
